I'd be grateful if you could share measured efficacy for these entries.
test system: HCT116; test: efficacy (fitted maximal change in viability relative to DMSO control); higher = less cytotoxic (negative = loss of viability); conditions: 48 h;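 also: Luminescence-based viability readout, five doses per compound, normalized against on-plate DMSO and empty-well controls, followed by dose-response curve fitting for every drug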
Kindly format the answer as number then unit.

Look up efficacy: Cc1cn2cc(C(=O)N(C)CCO)cc(N[C@@H]3CCOc4cccc(C)c43)c2n1
-27.6%

Return reported efficacy; argument: C[C@@H](c1ccc2nccn2c1)n1nnc2ncc(-c3cnn(C)c3)nc21
-32.1%

Item CC(C)(O)CNc1nc(Nc2ccnc(C(F)(F)F)c2)nc(-c2cccc(C(F)(F)F)n2)n1 has what recorded efficacy?
-71.3%

Which efficacy value is on record for C[C@]12CC[C@@H]3c4ccc(O)cc4C[C@@H](CCCCCCCCC[S+]([O-])CCCC(F)(F)C(F)(F)F)[C@H]3[C@@H]1CC[C@@H]2O (some centres undefined) ?
-14.2%

For C[S+](=O)([O-])c1cc(F)cc2c3c(n(Cc4ccc(Cl)cc4)c12)[C@@H](CC(=O)O)CC3 , what is its reported efficacy?
-18.4%

May I ask what efficacy has been recorded for Cn1cc(-c2cnn3c(N)c(Br)c([C@@H]4CCCNC4)nc23)cn1 ?
-108%

Data request, read-out efficacy, for CC[P](CC)(CC)=[Au][S][C@@H]1O[C@H](COC(C)=O)[C@@H](OC(C)=O)[C@H](OC(C)=O)[C@H]1OC(C)=O
-100%

Field request: efficacy | item: COc1ccc(CCC(=O)Nc2nc3ccc(Cl)cc3s2)cc1OC
-14.1%

Any idea what its efficacy is? The compound is O=C(Nc1cccnn1)N1CCC(=Cc2cccc(Oc3ccc(C(F)(F)F)cn3)c2)CC1
-72.6%

Form field: reported efficacy of CC1(C)CC(=O)c2c(C(F)(F)F)nn(-c3ccc(C(N)=O)c(NC4CCC(OC(=O)CN)CC4)c3)c2C1 (centres undefined)
-57.9%

Given the compound Cn1cc(-c2c[nH]c3ncnc(N4CCOCC4)c23)cn1 , what is its reported efficacy?
-31.9%

What measured efficacy goes with CCN(CC)CCN1C(=O)\C(=N/C2=CC=CC=C12)CC3=CC=C(OC)C=C3 ?
-15.9%

# query: efficacy of entry CN1C(=O)[C@@H](NC(=O)c2cc(Cc3ccccc3)on2)COc2ccccc21
-10.3%

For the compound CC(C)OC(=O)C(C)(C)Oc1ccc(C(=O)c2ccc(Cl)cc2)cc1 [Fenofibrate] , what efficacy is on record?
-34.6%

Requested field: efficacy. Item: C=CC[C@@H]1/C=C(\C)C[C@H](C)C[C@H](OC)[C@H]2O[C@@](O)(C(=O)C(=O)N3CCCC[C@H]3C(=O)O[C@H](/C(C)=C/[C@@H]3CC[C@@H](O)[C@H](OC)C3)[C@H](C)[C@@H](O)CC1=O)[C@H](C)C[C@@H]2OC
-91.2%

Param item = C[C@]12CCC(=O)C(O)=C1CC[C@@H]1[C@@H]2CC[C@]2(C)C(=O)CC[C@@H]12 ; retrieve measured efficacy.
24.5%

// efficacy lookup, key: OC(c1ccc(-c2ccc(CN3CCN(Cc4ccncc4)CC3)cc2)c(F)c1)(C(F)(F)F)C(F)(F)F
-44.3%

Please look up its efficacy: COC(=O)[C@H]1[C@@H](O)[C@@]2(O)c3c(OC)cc(O[C@@H]4O[C@@H]([C@@H](O)CO)CO[C@H]4OC)cc3O[C@@]2(c2ccc(OC)cc2)[C@@H]1c1ccccc1 [Episilvestrol]
-54.9%

Dear colleague, I am looking for the recorded efficacy of the following compound: CCC(C)CCCCC(=O)N[C@@H](CCN)C(=O)NC(C(=O)N[C@H](CCN)C(=O)N[C@@H]1CCNC(=O)C([C@@H](C)O)NC(=O)[C@@H](CCN)NC(=O)[C@@H](CCN)NC(=O)[C@@H](CC(C)C)NC(=O)[C@H](Cc2ccccc2)NC(=O)[C@H](CCN)NC1=O)[C@@H](C)O (some centres undefined) [Polymyxin B sulphate]
-10.6%
